# ASSAYED_TARGET: T1, AFP158/HLA-A*02:01 complex (human)
# T1 construct: flowed as analyte in SPR
# PROTOCOL_DESCRIPTION: SPR, crude scFv captured, pMHC analyte;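 also: complex injected at several concentrations over the chip, association phase then running buffer for dissociation, KD derived from on- and off-rates computed from both curves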
Entries and their kon
Dear colleague, please return just the value in M⁻¹ s⁻¹, with no unit written.

Examples with their reported kon follow.
AS170036 VL1VH1-56N98I108A (scFv, also called 52-AS170036 VL1VH1-56N98I108A) scFv: QSALTQPRSVSGSPGQSVTISCAGTSSDVGSENYVSWYQQHPGKAPKLMIYQVNKRASGVPDRFSGSKSGNTASLTISGLQAEDEADYYCASYRSSDINIVFGGGTKLTVLGGGGSGGGGSGGGGSEVQLVESGGGLVQPGGSLRLSCAASGFTFSSYAMSWVRQAPGKGLEWVSTINSGTNSPYYADSVKGRFTISRDNSKNTLYLQMNSLRAEDTAVYYCAKNFFDGSWFLAPPAMDYWGQGTLVTVSSHHHHHH ... 260000
AS170036 VL1VH1-57K98I108S (scFv, also called 72-AS170036 VL1VH1-57K98I108S) scFv: QSALTQPRSVSGSPGQSVTISCAGTSSDVGSENYVSWYQQHPGKAPKLMIYQVNKRASGVPDRFSGSKSGNTASLTISGLQAEDEADYYCASYRSSDINIVFGGGTKLTVLGGGGSGGGGSGGGGSEVQLVESGGGLVQPGGSLRLSCAASGFTFSSYAMSWVRQAPGKGLEWVSTINSGTGKPYYADSVKGRFTISRDNSKNTLYLQMNSLRAEDTAVYYCAKNFFDGSWFLSPPAMDYWGQGTLVTVSSHHHHHH ... 120000
AS170036 VL1VH1-57H98F108A (scFv, also called 58-AS170036 VL1VH1-57H98F108A) scFv: QSALTQPRSVSGSPGQSVTISCAGTSSDVGSENYVSWYQQHPGKAPKLMIYQVNKRASGVPDRFSGSKSGNTASLTISGLQAEDEADYYCASYRSSDFNIVFGGGTKLTVLGGGGSGGGGSGGGGSEVQLVESGGGLVQPGGSLRLSCAASGFTFSSYAMSWVRQAPGKGLEWVSTINSGTGHPYYADSVKGRFTISRDNSKNTLYLQMNSLRAEDTAVYYCAKNFFDGSWFLAPPAMDYWGQGTLVTVSSHHHHHH ... 260000

For AS170036 VL1VH1-57K98Q108A (scFv, also called 73-AS170036 VL1VH1-57K98Q108A) scFv: QSALTQPRSVSGSPGQSVTISCAGTSSDVGSENYVSWYQQHPGKAPKLMIYQVNKRASGVPDRFSGSKSGNTASLTISGLQAEDEADYYCASYRSSDQNIVFGGGTKLTVLGGGGSGGGGSGGGGSEVQLVESGGGLVQPGGSLRLSCAASGFTFSSYAMSWVRQAPGKGLEWVSTINSGTGKPYYADSVKGRFTISRDNSKNTLYLQMNSLRAEDTAVYYCAKNFFDGSWFLAPPAMDYWGQGTLVTVSSHHHHHH , what is its reported kon?
190000
